- assay_name: Protein binding in human plasma
- Format: ADME, cell-free
- condition_description: read-out: PPB (converted)
experimental_endpoint: fraction unbound

compound="Cl.NCc1cc(Oc2cccc(C(=O)N3C[C@@H](O)[C@H](F)C3)c2)nc(C(F)(F)F)c1 (racemic)" experimental_endpoint="fraction unbound" recorded_measurement=0.32

Now turn to the next compound.
Name the recorded fraction unbound of the item Cl.NCc1cc(Oc2cccc(C(=O)Nc3ccccc3)c2)nc(C(F)(F)F)c1 in your answer. 0.04

* * *

- test_target: Lysyl oxidase homolog 2 (Mus musculus, UniProt P58022)
- Sequence (P58022 whole entry): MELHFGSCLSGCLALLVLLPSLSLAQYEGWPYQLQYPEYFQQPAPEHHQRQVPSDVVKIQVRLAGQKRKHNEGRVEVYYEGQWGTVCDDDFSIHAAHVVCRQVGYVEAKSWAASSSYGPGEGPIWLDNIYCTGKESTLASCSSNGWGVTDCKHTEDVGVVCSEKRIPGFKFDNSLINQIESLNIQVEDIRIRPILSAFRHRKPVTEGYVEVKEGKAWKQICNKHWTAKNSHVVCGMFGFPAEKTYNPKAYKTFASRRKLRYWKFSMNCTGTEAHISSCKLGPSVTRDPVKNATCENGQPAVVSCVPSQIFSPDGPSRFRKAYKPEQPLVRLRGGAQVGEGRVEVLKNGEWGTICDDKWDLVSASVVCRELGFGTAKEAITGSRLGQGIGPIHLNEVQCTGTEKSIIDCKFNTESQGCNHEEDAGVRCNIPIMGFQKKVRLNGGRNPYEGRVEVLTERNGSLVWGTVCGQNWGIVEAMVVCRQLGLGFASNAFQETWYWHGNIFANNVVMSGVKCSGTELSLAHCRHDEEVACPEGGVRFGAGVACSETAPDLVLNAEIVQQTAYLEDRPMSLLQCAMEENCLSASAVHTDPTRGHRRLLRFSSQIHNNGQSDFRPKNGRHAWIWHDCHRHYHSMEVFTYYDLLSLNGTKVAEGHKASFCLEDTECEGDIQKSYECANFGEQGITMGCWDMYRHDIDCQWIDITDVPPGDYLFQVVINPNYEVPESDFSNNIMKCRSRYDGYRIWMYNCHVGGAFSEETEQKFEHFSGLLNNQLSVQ
- assay_name: Inhibition of recombinant mouse LOXL2 expressed in mouse whole blood assessed as reduction of H2O2 production from oxidative deamination of DAP preincubated for 2 hrs followed by substrate addition measured every 2 mins for 1 hr by amplex red reagent-based fluorescence assay
experimental_endpoint: pIC50
Recall that pIC50 is obtained by taking minus log10 of the concentration measured in molar.

In one line, give reported pIC50 of the entry Cl.NCc1cc(Oc2cccc(C(=O)N3C[C@@H](O)[C@H](F)C3)c2)nc(C(F)(F)F)c1 (racemic) . 6.07

* * *

- test_target: Lysyl oxidase homolog 2 (Homo sapiens) (UniProt Q9Y4K0)
- assay_name: Irreversible inhibition of human LOXL2 assessed as reduction of H2O2 production from oxidative deamination of DAP at 1000 times IC50 preincubated for 2 hrs followed by compound washout and subsequent incubation for 2 hrs prior to substrate addition measured every 2 mins for 40 mins by amplex red reagent-based fluorescence assay relative to control
experimental_endpoint: inhibition (%)
Give the quantity in %, number only.

The examples below pair each entry with its known result.
compound=NCc1ccnc(Cl)c1 readout_units=% recorded_measurement=32
compound=Cl.NCc1cc(Oc2cccc(C(=O)NC[C@@H](O)CO)c2)nc(C(F)(F)F)c1 readout_units=% recorded_measurement=77
compound=Cl.NCc1cc(Oc2cccc(C(=O)NCCn3cnnn3)c2)nc(C(F)(F)F)c1 readout_units=% recorded_measurement=77
compound="Cl.NCc1cc(Oc2cccc(C(=O)N3C[C@@H](O)[C@H](F)C3)c2)nc(C(F)(F)F)c1 (racemic)" readout_units=% recorded_measurement=77
compound=Cl.NCc1cc(Oc2cccc(C(=O)Nc3ccccc3)c2)nc(C(F)(F)F)c1 readout_units=% recorded_measurement=88
compound=Cl.NCc1cc(Oc2cccc(C(=O)NCCS(N)(=O)=O)c2)nc(C(F)(F)F)c1 readout_units=% recorded_measurement=75

Okay, next one:
Look up inhibition of Cl.NCc1cc(Oc2cccc(C(=O)N3CC[C@@H](O)C3)c2)nc(C(F)(F)F)c1 and report it. 75

* * *

- test_target: Lysyl oxidase homolog 2 (Homo sapiens, UniProt Q9Y4K0)
- Sequence (Q9Y4K0 whole entry): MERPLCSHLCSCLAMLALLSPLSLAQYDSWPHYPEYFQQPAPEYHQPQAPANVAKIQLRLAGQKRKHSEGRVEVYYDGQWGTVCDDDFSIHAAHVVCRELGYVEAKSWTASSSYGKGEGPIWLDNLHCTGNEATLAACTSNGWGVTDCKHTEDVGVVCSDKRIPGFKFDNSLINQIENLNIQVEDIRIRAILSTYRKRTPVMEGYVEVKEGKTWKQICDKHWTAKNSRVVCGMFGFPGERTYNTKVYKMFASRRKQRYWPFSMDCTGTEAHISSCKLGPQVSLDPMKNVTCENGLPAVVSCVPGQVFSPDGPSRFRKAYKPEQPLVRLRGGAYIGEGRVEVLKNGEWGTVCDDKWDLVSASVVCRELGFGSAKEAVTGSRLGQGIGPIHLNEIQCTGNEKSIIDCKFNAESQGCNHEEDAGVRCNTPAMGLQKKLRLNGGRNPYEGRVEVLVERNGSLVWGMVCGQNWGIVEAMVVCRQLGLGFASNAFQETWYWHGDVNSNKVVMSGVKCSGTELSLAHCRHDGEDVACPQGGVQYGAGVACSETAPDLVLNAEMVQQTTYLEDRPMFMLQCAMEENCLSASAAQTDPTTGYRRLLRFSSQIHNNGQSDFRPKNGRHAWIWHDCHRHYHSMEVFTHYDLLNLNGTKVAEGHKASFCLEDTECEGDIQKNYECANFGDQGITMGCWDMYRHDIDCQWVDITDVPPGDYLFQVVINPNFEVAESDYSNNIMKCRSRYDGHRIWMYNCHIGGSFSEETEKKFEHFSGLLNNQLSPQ
- assay_name: Inhibition of human LOXL2 expressed in CHO cells assessed as reduction of H2O2 production from oxidative deamination of DAP preincubated for 2 hrs followed by substrate addition in presence of 0.1% BSA measured every 2 mins for 1 hr by amplex red reagent-based fluorescence assay
- Assay type: cell-based
Rule: measured IC50 below 100 nM gets met; anything equal to or greater than 100 nM gets not met.

Field: example entries. Status: answers known.
smi=Cl.NCc1cc(Oc2cccc(C(=O)NCCn3cnnn3)c2)nc(C(F)(F)F)c1 answer_label=met
smi=N=C(N)c1cccc(CNC(=O)c2cccc(Oc3cc(CN)ccn3)c2)c1 answer_label="not met"
smi=NCc1ccnc(Oc2cccc(C(=O)NCc3cc4ccccc4s3)c2)c1 answer_label="not met"
smi=Cl.NCc1cc(Oc2cccc(C(=O)N3CC[C@@H](O)C3)c2)nc(C(F)(F)F)c1 answer_label="not met"
smi=NCc1ccnc(Oc2cccc(C(=O)Nc3ccc(F)cc3)c2)c1 answer_label="not met"
smi=NCc1ccnc(Oc2cccc(C(=O)N3CCc4ccccc4C3)c2)c1 answer_label="not met"
smi=Cl.NCc1cc(Oc2cccc(C(=O)NC[C@@H](O)CO)c2)nc(C(F)(F)F)c1 answer_label=met
smi=CONC(=O)c1cccc(Oc2cc(CN)cc(C(F)(F)F)n2)c1.Cl answer_label="not met"

Report whether reported IC50 is lower than 100 nM (strictly) for NCc1cc(Oc2cccc(Oc3ccccc3)c2)nc(C(F)(F)F)c1 not met

# check: IC50 < 100 nM for Cl.NCc1cc(Oc2cccc(C(=O)NCCS(N)(=O)=O)c2)nc(C(F)(F)F)c1 met

# TODO verify IC50 < 100 nM strictly for this compound: Cl.NCc1cc(Oc2cccc(C(=O)Nc3ccccc3)c2)nc(C(F)(F)F)c1 met

* * *

- test_target: Lysyl oxidase homolog 2 (Homo sapiens)
- assay_name: Inhibition of human LOXL2 expressed in CHO cells assessed as reduction of H2O2 production from oxidative deamination of DAP preincubated for 2 hrs followed by substrate addition measured every 2 mins for 1 hr by amplex red reagent-based fluorescence assay
- Format: cell-based
# maps each entry to its IC50
# number only, unit nM dropped from output

These solved cases illustrate the format of a correct answer.
compound=COCCNC(=O)c1cccc(Oc2cc(CN)ccn2)c1 recorded_measurement=160
compound=Cl.Cl.NCc1cc(Oc2cccc(C(=O)N3CC[C@@H](N)C3)c2)nc(C(F)(F)F)c1 recorded_measurement=58
compound=NCc1ccnc(Oc2cccc(C(=O)Nc3ccccc3)c2)c1 recorded_measurement=56
compound=NCc1ccnc(Oc2cccc(C(=O)NCc3ccccc3)c2)c1 recorded_measurement=62
compound=COCCNC(=O)c1ccc(Oc2cc(CN)ccn2)cc1 recorded_measurement=500
compound=NCc1ccnc(Oc2cccc(C(=O)N3CCc4ccccc4C3)c2)c1 recorded_measurement=120

Please indicate IC50 recorded for Cl.NCc1cc(Oc2cccc(C(=O)N3CC[C@@H](O)C3)c2)nc(C(F)(F)F)c1 110

Input NCc1cc(Oc2cccc(C(=O)NCc3cc4ccccc4s3)c2)nc(C(F)(F)F)c1 , output reported IC50. 34

* * *

- test_target: Lysyl oxidase homolog 2 (Homo sapiens, UniProt Q9Y4K0)
- assay_name: Inhibition of human LOXL2 expressed in CHO cells assessed as reduction of H2O2 production from oxidative deamination of DAP preincubated for 2 hrs followed by substrate addition in presence of 0.1% BSA measured every 2 mins for 1 hr by amplex red reagent-based fluorescence assay
- Type: cell-based
IC50 values by entry
Record the value in nM, omitting the unit from your answer.

The examples below pair each entry with its known result.
molecule=NCc1cc(Oc2cccc(C(=O)NCc3cc4ccccc4s3)c2)nc(C(F)(F)F)c1 test_target="Lysyl oxidase homolog 2 (Homo sapiens, UniProt Q9Y4K0)" experimental_endpoint=IC50 recorded_measurement=100
molecule=Cl.Cl.NCc1cc(Oc2cccc(C(=O)N3CC[C@@H](N)C3)c2)nc(C(F)(F)F)c1 test_target="Lysyl oxidase homolog 2 (Homo sapiens, UniProt Q9Y4K0)" experimental_endpoint=IC50 recorded_measurement=100
molecule="Cl.NCc1cc(Oc2cccc(C(=O)N3C[C@@H](O)[C@H](F)C3)c2)nc(C(F)(F)F)c1 (racemic)" test_target="Lysyl oxidase homolog 2 (Homo sapiens, UniProt Q9Y4K0)" experimental_endpoint=IC50 recorded_measurement=100
molecule=NCc1ccnc(Oc2ccc(C(=O)Nc3ccccc3)cc2)c1 test_target="Lysyl oxidase homolog 2 (Homo sapiens, UniProt Q9Y4K0)" experimental_endpoint=IC50 recorded_measurement=750
molecule=NCc1ccnc(Oc2cccc(C(=O)Nc3ccccc3)c2)c1 test_target="Lysyl oxidase homolog 2 (Homo sapiens, UniProt Q9Y4K0)" experimental_endpoint=IC50 recorded_measurement=130

Using the record for NCc1cc(O[C@@H]2CCCN(C(=O)Nc3ccccc3)C2)nc(C(F)(F)F)c1 , state its measured IC50. 620

For NCc1cc(O[C@H]2CCCN(C(=O)Nc3ccccc3)C2)nc(C(F)(F)F)c1 , write its IC50. 160
